test: Determination of water solubility (UV, saturated solution); format: physicochemical; details: aqueous buffer, thermodynamic from solid; 10 mM phosphate buffer (pH 7.4), stirred 3 hours, filtered; read-out: C′ (μM) = A′ (C/A), concentration of the saturated solution (water solubility)
outcomeMeasure: solubility at 3 h (µM)
Give bare numbers, in µM.

Input line: For the compound O=c1c2ccccc2[se]n1-c1ccccc1 [Ebselen, reference compound] , what solubility at 3 h is on record?
Output line: 4.62

====

test: Glutathione peroxidase like activity (NADPH-glutathione reductase coupled system); format: biochemical; conditions: 50 μM compound, relative to Ebselen
Would you mind telling me the reported % Ebselen (glutathione peroxidase activity) of each entry?
Numbers only, in %.

Worked set:
{"columns": ["compoundSmiles", "observedValue"],
 "data": [
  ["CC(C)/[N+]([O-])=C/c1ccc(-n2[se]c3ccccc3c2=O)cc1", 119.50],
  ["CC(C)/[N+]([O-])=C\\c1ccc(Cn2[se]c3ccccc3c2=O)cc1", 71.17]
]}

Respectfully, I request % Ebselen (glutathione peroxidase activity) for each entry included below.
1. CC(C)/[N+]([O-])=C\c1cccc(-n2[se]c3ccccc3c2=O)c1
2. CC(C)[N+]([O-])=Cc1csc(-n2[se]c3ccccc3c2=O)n1

Output line:
[105.96, 106.11]
